Ki values for Metabotropic glutamate receptor 5 (Rattus norvegicus, UniProt P31424) compiled from several publications are listed below.
assay-metric: Ki

COc1ccc(C(=O)N2CCc3ncc(Br)cc3C2)cc1C#Cc1ccccn1 ... 8 nM
COc1ccc2c(-c3ccc(Cl)cc3)c(S(=O)(=O)c3cccc(C#N)c3)sc2n1 ... < 500 nM
Cc1cccc(-c2c(S(=O)(=O)c3cccc(C#N)c3)sc3ncccc23)c1 ... < 500 nM
O=S(=O)(c1ccc(F)c(Cl)c1)c1cnc2c(F)cccc2c1-c1cccc(Cl)c1 ... < 200 nM
COc1ccc(-c2c(S(=O)(=O)c3ccc(F)cc3)cnc3ccc(F)cc23)cc1 ... > 500 nM
N#Cc1cc(F)cc(S(=O)(=O)c2cnc3cc(Cl)ccc3c2-c2ccc(Cl)cc2)c1 ... < 200 nM
N#Cc1ccc2c(-c3ccccc3F)c(S(=O)(=O)c3cc(F)cc(F)c3)cnc2c1 ... 200 to 500 nM
CC1CCN(c2c(S(=O)(=O)c3ccc(F)cc3)cnc3cc(F)ccc23)CC1 ... 200 to 500 nM
COc1ccc(-c2c(S(=O)(=O)c3ccc(OC)cc3)cnc3ccc(F)cc23)cc1 ... < 200 nM
CCOc1ccc2ncc(S(=O)(=O)c3ccc(C)cc3)c(N3CCN(c4ccccc4F)CC3)c2c1 ... > 500 nM
COc1ccc(C(=O)N2CCc3[nH]ncc3C2)cc1C#Cc1ccccn1 ... 27 nM
CC1CCN(c2c(S(=O)(=O)c3ccc(Cl)c(Cl)c3)cnc3ccc(Cl)cc23)CC1 ... < 200 nM
Cc1ccc2ncc(S(=O)(=O)c3ccc(Cl)cc3)c(N3CCN(c4ccccc4)CC3)c2c1 ... > 500 nM
O=S(=O)(c1cc(Cl)cc(Cl)c1)c1cnc2cc(Cl)ccc2c1-c1ccccc1F ... < 200 nM
COc1ccc(S(=O)(=O)c2cnc3ccc(F)cc3c2N2CCOCC2)cc1 ... > 500 nM
COc1ccc(S(=O)(=O)c2cnc3cc(F)ccc3c2-c2cccc(Cl)c2)cc1Cl ... < 200 nM
O=S(=O)(c1ccc(Cl)cc1)c1sc2ncccc2c1-c1ccc(F)cc1F ... < 500 nM

* * *

Ki values for Metabotropic glutamate receptor 5 (Rattus norvegicus) compiled from several publications are listed below.
assay-metric: Ki

O=S(=O)(c1ccc(Cl)cc1)c1cnc2cc(Cl)ccc2c1-c1ccc(F)cc1 ... < 0.2 µM
Cc1ccc(S(=O)(=O)c2cnc3ccc(Cl)cc3c2N2CCC(C)CC2)cc1F ... 0.2 to 0.5 µM
COc1cccc(S(=O)(=O)c2cnc3ccc(Cl)cc3c2N2CCOCC2)c1 ... > 0.5 µM
O=S(=O)(c1cc(Cl)cc(Cl)c1)c1cnc2cc(F)ccc2c1-c1ccc(F)c(F)c1 ... < 0.2 µM
Cc1ccc2ncc(S(=O)(=O)c3ccc(Cl)c(Cl)c3)c(N3CCOCC3)c2c1 ... 0.2 to 0.5 µM
N#Cc1ccc2c(-c3ccccc3F)c(S(=O)(=O)c3ccc(F)c(Cl)c3)cnc2c1 ... < 0.2 µM
O=S(=O)(c1cc(F)cc(F)c1)c1cnc2cc(Cl)ccc2c1-c1ccc(Cl)cc1 ... < 0.2 µM
COc1ccc(-c2c(S(=O)(=O)c3ccc(F)c(Cl)c3)cnc3cc(F)ccc23)cc1 ... < 0.2 µM
Cc1ccc(S(=O)(=O)c2cnc3cc(F)ccc3c2-c2cccc(F)c2)cc1Cl ... < 0.2 µM
O=S(=O)(c1cccc(F)c1)c1cnc2c(F)cccc2c1-c1ccc(Cl)cc1 ... < 0.2 µM
COc1ccc(C(=O)N2Cc3ccccc3C(S(=O)(=O)N3CCS(=O)(=O)CC3)C2)cc1C#Cc1ccccn1 (centres unmarked) ... 0.07 µM
CCOC(=O)CC(=O)c1sc2nc(C)ccc2c1-c1ccc(Cl)cc1 ... < 0.5 µM
CC1CCN(c2c(S(=O)(=O)c3cccc(F)c3)cnc3ccc(Cl)cc23)CC1 ... 0.2 to 0.5 µM
O=S(=O)(c1ccccc1)c1cnc2ccc(F)cc2c1N1CCOCC1 ... < 0.2 µM
Cc1ccc(S(=O)(=O)c2cnc3ccc(C)cc3c2N2CCN(c3ccccc3F)CC2)cc1 ... > 0.5 µM
CC1CCN(c2c(S(=O)(=O)c3ccc(C#N)cc3)cnc3cc(F)ccc23)CC1 ... < 0.2 µM
CC1CCN(c2c(S(=O)(=O)c3ccccc3)cnc3cc(F)ccc23)CC1 ... < 0.2 µM
